- System Under Test: T1, human 5T4 (trophoblast glycoprotein), endogenous on the cell surface (human, UniProt Q13641 32-420)
- T1 construct: also called TPBG; 5T4 oncofetal antigen
- T1 sequence: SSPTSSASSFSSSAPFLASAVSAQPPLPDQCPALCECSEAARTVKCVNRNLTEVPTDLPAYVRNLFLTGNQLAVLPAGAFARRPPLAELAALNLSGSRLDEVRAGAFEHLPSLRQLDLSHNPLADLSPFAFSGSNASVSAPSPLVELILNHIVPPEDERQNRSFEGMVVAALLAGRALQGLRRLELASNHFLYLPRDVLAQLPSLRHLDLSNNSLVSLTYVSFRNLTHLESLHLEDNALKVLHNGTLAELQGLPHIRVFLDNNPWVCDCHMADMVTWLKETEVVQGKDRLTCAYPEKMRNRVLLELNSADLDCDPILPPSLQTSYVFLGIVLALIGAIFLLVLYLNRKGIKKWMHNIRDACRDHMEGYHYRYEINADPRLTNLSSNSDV
- Run Description: flow cytometry (FL4H median), sdAb-Fc titrated on 5T4-positive T47D cells
Provide the reported EC50 (read off the curve) of each item.

Exercise: Look up EC50 (read off the curve) of hz16G10v4 sdAb-Fc (Fc fusion, Humanized variant of 16G10, linked to a human Fc; not shown: human Fc) EVQLVESGGGEVQPGGSLRLSCAASGRPFSSSAMGWFRQAPGKERETVAAVSRQGGSSYYAESVKGRFTISRDNAKNTVYLQMSSLRAEDTAVYYCAARSAAYSRSSETYTEKHDYTYWGQGTLVTVKP and report it.
Solution: ~9 nM

Exercise: Look up EC50 (read off the curve) of hz14B5v8 sdAb-Fc (Fc fusion, Humanized variant of 14B5, linked to a human Fc; not shown: human Fc) EVQLVESGGGEVQPGGSLRLSCAASERPFGTYAMGWFRQAPGKERDLVAAVSRGGGASQYAESVKGRFTISRDNAKNTMYLQMSSLRAEDTAVYYCAARSAAYSRSSEVYTGKDEYYYWGQGTLVTVKP and report it.
Solution: ~2 nM

Exercise: Look up EC50 (read off the curve) of hz14B5v7 sdAb-Fc (Fc fusion, Humanized variant of 14B5, linked to a human Fc; not shown: human Fc) EVQLVESGGGEVQPGGSLRLSCAASERPFGTYAMGWFRQAPGKERDLVAAVSRQGGASQYAESVKGRFTISRDNAKNTMYLQMSSLRAEDTAVYYCAARSAAYSRSSEVYTGKDEYYYWGQGTLVTVKP and report it.
Solution: ~2 nM
